src = patent US20230131899A1

- system.under.test: E. coli CsgA (Escherichia coli, UniProt P28307)
- Construct: made in house; host or cells: E. coli NEB 3016 slyD::kan, pET11d
- Sequence (P28307 23-151): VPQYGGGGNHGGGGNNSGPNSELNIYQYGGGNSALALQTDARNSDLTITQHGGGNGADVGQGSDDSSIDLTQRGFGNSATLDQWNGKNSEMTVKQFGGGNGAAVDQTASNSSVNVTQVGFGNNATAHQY
- run.description: In vitro ThioflavinT assay of CsgA aggregation (CsgA ThT Assay)
- Format: biochemical
- experimental.setup: read-out: CsgA ThT Assay (10 μM CsgA) % Control AUC at 1005 minutes, 100 μM (activity range), CsgA 10 μM, black plates; compound 100 μM; 1005 minutes; class symbol
- Procedure: In vitro ThioflavinT assay to determine effects of compounds on CsgA aggregation. […] Protein concentration was assessed by the NanoDrop technique (Thermo Scientific), as is familiar to one skilled in the art. […] During the assay, plates were shaken initially for 5 seconds and subsequently for 3 seconds prior to fluorescent readings. Readings were performed every 15 minutes for up to 1005 minutes. The effect of compounds on CsgA aggregation in the assay was determined with data from 0-17 hours. […]
Item-by-item account of remaining activity at 100 µM

{"columns": ["molecule", "remaining activity at 100 µM"],
 "data": [
  ["O=C(O)C1CN(CCCCO)S(=O)(=O)c2c(-c3cccc(C(F)(F)F)c3)c(Cc3cccc4ccccc34)cc(=O)n21 (stereo not shown)", "11 to 31%"],
  ["O=C(O)c1csc2c(-c3cccc(C(F)(F)F)c3)c(Cc3cccc4ccccc34)cc(=O)n12", "> 60%"],
  ["NC(=O)CN1CC(C(=O)O)n2c(c(-c3cccc(C(F)(F)F)c3)c(Cc3cccc4ccccc34)cc2=O)S1(=O)=O (stereo not shown)", "11 to 31%"],
  ["CN(C)Cc1c(Cc2cccc3ccccc23)c(-c2cccc(C(F)(F)F)c2)c2n(c1=O)C(C(=O)O)CN(C)S2(=O)=O (stereo not shown)", "11 to 31%"],
  ["O=C(O)[C@H]1CNS(=O)(=O)c2c(-c3cccc(C(F)(F)F)c3)c(Cc3cccc4ccccc34)cc(=O)n21 (single isomer, unassigned) [Compound 009b]", "31 to 60%"]
]}

stdin: Any idea what remaining activity at 100 µM was measured for O=C(O)C1CN(C(=O)OCc2ccccc2)c2c(-c3cccc(C(F)(F)F)c3)c(Cc3cccc4ccccc34)cc(=O)n21 (stereo not shown) ?
stdout: > 60%

stdin: Any idea what remaining activity at 100 µM was measured for CCCN1CC(C(=O)O)n2c(c(-c3cccc(C(F)(F)F)c3)c(Cc3cccc4ccccc34)c(CC)c2=O)S1(=O)=O (stereo not shown) ?
stdout: 11 to 31%

stdin: Any idea what remaining activity at 100 µM was measured for CCCN1CC(C(=O)O)n2c(c(-c3cccc(C(F)(F)F)c3)c(Cc3cccc4ccccc34)c(NC3CCOCC3)c2=O)S1(=O)=O (stereo not shown) ?
stdout: < 10%

stdin: Any idea what remaining activity at 100 µM was measured for O=C(O)C1CN(CCCO)S(=O)(=O)c2c(-c3cccc(C(F)(F)F)c3)c(Cc3cccc4ccccc34)cc(=O)n21 (stereo not shown) ?
stdout: 31 to 60%

stdin: Any idea what remaining activity at 100 µM was measured for CN1CC(C(=O)O)n2c(c(-c3cccc(C(F)(F)F)c3)c(Cc3cccc4ccccc34)c(C(O)CO)c2=O)S1(=O)=O (stereo not shown) ?
stdout: 11 to 31%

stdin: Any idea what remaining activity at 100 µM was measured for O=C(O)C1CS(=O)(=O)c2c(-c3cccc(C(F)(F)F)c3)c(C(F)(F)c3cccc4ccccc34)cc(=O)n21 (stereo not shown) ?
stdout: 11 to 31%

stdin: Any idea what remaining activity at 100 µM was measured for CN1CC(C(=O)O)n2c(c(-c3cccc(C(F)(F)F)c3)c(Cc3cccc4ccccc34)c(NC3CCNCC3)c2=O)S1(=O)=O (stereo not shown) ?
stdout: > 60%

stdin: Any idea what remaining activity at 100 µM was measured for CC1(C(=O)O)CNS(=O)(=O)c2c(-c3cccc(C(F)(F)F)c3)c(Cc3cccc4ccccc34)cc(=O)n21 (stereo not shown) ?
stdout: 11 to 31%

====

- system.under.test: E. coli CsgA (Escherichia coli, UniProt P28307)
- Construct: made in house; host or cells: E. coli NEB 3016 slyD::kan, pET11d
- run.description: In vitro ThioflavinT assay of CsgA aggregation (CsgA ThT Assay)
- Type: biochemical
- experimental.setup: read-out: CsgA ThT Assay (10 μM CsgA) % Control AUC at 1005 minutes, 25 μM, mean AUC as % of DMSO control; CsgA 10 μM, black plates; compound 25 μM; 1005 minutes
- Description: In vitro ThioflavinT assay to determine effects of compounds on CsgA aggregation. […] Protein concentration was assessed by the NanoDrop technique (Thermo Scientific), as is familiar to one skilled in the art. […] During the assay, plates were shaken initially for 5 seconds and subsequently for 3 seconds prior to fluorescent readings. Readings were performed every 15 minutes for up to 1005 minutes. The effect of compounds on CsgA aggregation in the assay was determined with data from 0-17 hours. […]
value.type: remaining activity at 25 µM (%)
Record the value in %, omitting the unit from your answer.

stdin: # value lookup — system E. coli CsgA (Escherichia coli, UniProt P28307), readout remaining activity at 25 µM, item O=C(O)C1CN(C[C@H](O)CO)S(=O)(=O)c2c(-c3cccc(C(F)(F)F)c3)c(Cc3cccc4ccccc34)cc(=O)n21 (stereo partly drawn) [Compound 065a]
stdout: 65

stdin: # value lookup — system E. coli CsgA (Escherichia coli, UniProt P28307), readout remaining activity at 25 µM, item CCc1c(Cc2cccc3ccccc23)c(-c2cccc(C(F)(F)F)c2)c2n(c1=O)C(C(=O)O)CN([C@H]1CC[C@@H](O)CC1)S2(=O)=O (stereo partly drawn) [Compound 124]
stdout: 35

stdin: # value lookup — system E. coli CsgA (Escherichia coli, UniProt P28307), readout remaining activity at 25 µM, item O=C(O)C1CSc2c(-c3cccc(C(F)(F)F)c3)c(Cc3cccc4ccccc34)nc(=O)n21 (stereo not drawn) [Compound 022]
stdout: 70

stdin: # value lookup — system E. coli CsgA (Escherichia coli, UniProt P28307), readout remaining activity at 25 µM, item Nc1c(Cc2cccc3ccccc23)c(-c2cccc(C(F)(F)F)c2)c2n(c1=O)C(C(=O)O)CN(C[C@H](O)CO)S2(=O)=O (stereo partly drawn) [Compound 095]
stdout: 91

stdin: # value lookup — system E. coli CsgA (Escherichia coli, UniProt P28307), readout remaining activity at 25 µM, item Cn1c(=O)c2c(nc(CCCCN3CC(C(=O)O)n4c(c(-c5cccc(C(F)(F)F)c5)c(Cc5cccc6ccccc56)cc4=O)S3(=O)=O)n2C)n(C)c1=O (stereo not drawn) [Compound 044]
stdout: 55

stdin: # value lookup — system E. coli CsgA (Escherichia coli, UniProt P28307), readout remaining activity at 25 µM, item CCN1CC(C(=O)O)n2c(c(-c3cccc(C(F)(F)F)c3)c(Cc3cccc4ccccc34)c(N)c2=O)S1(=O)=O (stereo not drawn) [Compound 092]
stdout: 64

====

- system.under.test: E. coli CsgA (Escherichia coli, UniProt P28307)
- Construct: made in house; host or cells: E. coli NEB 3016 slyD::kan, pET11d
- run.description: In vitro ThioflavinT assay of CsgA aggregation (CsgA ThT Assay)
- Assay type: biochemical
- experimental.setup: read-out: CsgA ThT Assay (2 μM CsgA) % Control Bmax 100 μM, activity range, class symbol; CsgA 2 μM, white plates; compound 100 μM
value.type: remaining activity at 100 µM

{"columns": ["molecule", "remaining activity at 100 µM"],
 "data": [
  ["CC(C)(C)c1ccc(CN2CC(C(=O)O)n3c2c(-c2cccc(C(F)(F)F)c2)c(Cc2cccc4ccccc24)c(Cl)c3=O)cc1 (stereo not shown) [Compound 208]", "11 to 31%"],
  ["CCCN1CC(C(=O)O)n2c(c(-c3cccc(C(F)(F)F)c3)c(Cc3cccc4ccccc34)c(Cl)c2=O)S1(=O)=O (stereo not shown) [Compound 142]", "> 60%"],
  ["CCCN1CC(C(=O)O)n2c(c(-c3cccc(C(F)(F)F)c3)c(Cc3cccc4ccccc34)c(N3CCCC3=O)c2=O)S1(=O)=O (stereo not shown) [Compound 151]", "> 60%"]
]}

Next molecule, please.
stdin: Any idea what remaining activity at 100 µM was measured for O=C(O)C1CNc2c(-c3cccc(C(F)(F)F)c3)c(C(F)(F)c3cccc4ccccc34)cc(=O)n21 (stereo not shown) [Compound 134] ?
stdout: > 60%

====

- system.under.test: E. coli CsgA (Escherichia coli)
- Construct: made in house; host or cells: E. coli NEB 3016 slyD::kan, pET11d
- run.description: In vitro ThioflavinT assay of CsgA aggregation (CsgA ThT Assay)
- Type: biochemical
- experimental.setup: read-out: CsgA ThT Assay (10 μM CsgA) % Control AUC at 1005 minutes, 25 μM, mean AUC as % of DMSO control; CsgA 10 μM, black plates; compound 25 μM; 1005 minutes
- Description: In vitro ThioflavinT assay to determine effects of compounds on CsgA aggregation. […] Protein concentration was assessed by the NanoDrop technique (Thermo Scientific), as is familiar to one skilled in the art. […] During the assay, plates were shaken initially for 5 seconds and subsequently for 3 seconds prior to fluorescent readings. Readings were performed every 15 minutes for up to 1005 minutes. The effect of compounds on CsgA aggregation in the assay was determined with data from 0-17 hours. […]
value.type: remaining activity at 25 µM (%)
Record the value in %, omitting the unit from your answer.

{"columns": ["compound", "remaining activity at 25 µM [%]"],
 "data": [
  ["O=C(O)C1CN(CCCO)S(=O)(=O)c2c(-c3cccc(C(F)(F)F)c3)c(Cc3cccc4ccccc34)c(NC3CCCC3)c(=O)n21 (stereo not drawn)", 28],
  ["CCCN1CC(C(=O)O)n2c(c(-c3cccc(C(F)(F)F)c3)c(Cc3cccc4ccccc34)c(NC3CCCC3)c2=O)S1(=O)=O (stereo not drawn)", 36],
  ["CCc1c(Cc2cccc3ccccc23)c(-c2cccc(C(F)(F)F)c2)c2n(c1=O)C(C(=O)O)CN(CCCCO)S2(=O)=O (stereo not drawn)", 41]
]}

stdin: # value lookup — system E. coli CsgA (Escherichia coli), readout remaining activity at 25 µM, item CNC(=O)CCCN1CC(C(=O)O)n2c(c(-c3cccc(C(F)(F)F)c3)c(Cc3cccc4ccccc34)cc2=O)S1(=O)=O (stereo not drawn)
stdout: 71

stdin: # value lookup — system E. coli CsgA (Escherichia coli), readout remaining activity at 25 µM, item CCN1CC(C(=O)O)n2c(c(-c3cccc(C(F)(F)F)c3)c(Cc3cccc4ccccc34)cc2=O)S1(=O)=O (single isomer, unassigned) [Compound 015a]
stdout: 25
